# target_or_test_system: T1, Cascade- (crRNA-free Cse1-Cse2-Cas7-Cas5-Cas6e) (Escherichia coli (K12; expressed in …, UniProt Q46901;P76632;Q46899;Q46898;Q46897 1-502;1-160;1-363;1-224;1-199)
# T1 sequence 1: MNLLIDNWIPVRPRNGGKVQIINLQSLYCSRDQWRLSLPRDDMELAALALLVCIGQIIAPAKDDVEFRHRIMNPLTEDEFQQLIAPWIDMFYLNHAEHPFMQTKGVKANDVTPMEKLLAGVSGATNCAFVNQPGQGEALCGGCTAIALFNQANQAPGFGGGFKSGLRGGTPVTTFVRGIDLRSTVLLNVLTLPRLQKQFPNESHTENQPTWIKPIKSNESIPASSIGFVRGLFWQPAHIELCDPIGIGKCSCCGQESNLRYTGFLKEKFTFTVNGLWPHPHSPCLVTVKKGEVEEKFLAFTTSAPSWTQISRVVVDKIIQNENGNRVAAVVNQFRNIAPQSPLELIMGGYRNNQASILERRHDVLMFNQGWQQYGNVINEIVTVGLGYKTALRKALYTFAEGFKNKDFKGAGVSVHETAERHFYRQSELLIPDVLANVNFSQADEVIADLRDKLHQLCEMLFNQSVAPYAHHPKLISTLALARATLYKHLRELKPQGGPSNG
# T1 sequence 2: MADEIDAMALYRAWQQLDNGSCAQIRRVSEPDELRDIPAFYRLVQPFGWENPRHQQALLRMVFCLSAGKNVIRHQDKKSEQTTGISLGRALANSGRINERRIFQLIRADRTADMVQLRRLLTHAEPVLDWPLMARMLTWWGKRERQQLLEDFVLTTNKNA
# T1 sequence 3: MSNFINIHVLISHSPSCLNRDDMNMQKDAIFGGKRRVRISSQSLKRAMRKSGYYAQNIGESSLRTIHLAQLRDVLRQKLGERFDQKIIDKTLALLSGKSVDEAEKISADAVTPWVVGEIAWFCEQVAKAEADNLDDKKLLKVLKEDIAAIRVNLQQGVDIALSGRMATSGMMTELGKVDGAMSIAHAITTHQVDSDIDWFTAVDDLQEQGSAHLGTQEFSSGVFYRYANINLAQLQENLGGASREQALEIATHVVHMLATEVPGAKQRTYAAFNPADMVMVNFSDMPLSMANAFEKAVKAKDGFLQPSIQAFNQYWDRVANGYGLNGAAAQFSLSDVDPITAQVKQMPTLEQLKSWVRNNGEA
# T1 sequence 4: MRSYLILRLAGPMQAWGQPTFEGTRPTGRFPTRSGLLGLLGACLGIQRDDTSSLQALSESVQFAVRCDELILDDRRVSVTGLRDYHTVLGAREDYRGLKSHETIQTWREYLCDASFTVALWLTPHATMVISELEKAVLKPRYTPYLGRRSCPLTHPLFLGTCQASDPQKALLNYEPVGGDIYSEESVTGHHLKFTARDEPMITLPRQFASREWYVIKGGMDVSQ
# T1 sequence 5: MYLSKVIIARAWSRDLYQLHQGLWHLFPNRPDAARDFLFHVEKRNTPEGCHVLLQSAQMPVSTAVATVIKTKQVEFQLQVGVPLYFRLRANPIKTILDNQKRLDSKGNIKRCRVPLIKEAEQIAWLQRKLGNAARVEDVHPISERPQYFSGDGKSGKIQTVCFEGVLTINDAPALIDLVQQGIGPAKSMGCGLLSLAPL
# assay_info: EMSA; EMSA: 20 mM Tris-HCl pH 8, 20 mM NaCl, 10 nM 32P probe, 30 min at 30 or 37 C, 6% native PAGE; loading 10 min at 30 C with crRNA (0.5 uM in Fig 3). Kd values are printed only in Fig 5A (not in the material)
# condition_label: protein: recombinant; tags: N-terminal 6His on Cse1 (CasA); copies: 1;2;6;1;1; label: DNA 5'-32P; guide + blunt duplex

{"binder": "poly-C handle crRNA + g8 dsDNA (mixed) RNA: CCCCCCCCCUGUCUUUCGCUGCUGAGGGUGACGAUCCGCCGAGUU DNA 1: CAGGGAGTTAAAGGCCGCTTTTGCGGGATCGTCACCCTCAGCAGCGAAAGACAGCATCGGAACGAGGGTAGCAACGGCT DNA 2: AGCCGTTGCTACCCTCGTTCCGATGCTGTCTTTCGCTGCTGAGGGTGACGATCCCGCAAAAGCGGCCTTTAACTCCCTG", "binding result": "no binding"}
{"binder": "crRNA2 + g8 dsDNA (mixed, no 2',3'-cyclic phosphate on crRNA) RNA: AUAAACCGCUGUCUUUCGCUGCUGAGGGUGACGAUCCGCCGAGUUCCCCGCGCCAGCGGGG DNA 1: CAGGGAGTTAAAGGCCGCTTTTGCGGGATCGTCACCCTCAGCAGCGAAAGACAGCATCGGAACGAGGGTAGCAACGGCT DNA 2: AGCCGTTGCTACCCTCGTTCCGATGCTGTCTTTCGCTGCTGAGGGTGACGATCCCGCAAAAGCGGCCTTTAACTCCCTG", "binding result": "binds"}
{"binder": "crRNA7 (-7/+5) + g8 dsDNA (mixed) RNA: UAAACCGCUGUCUUUCGCUGCUGAGGGUGACGAUCCGCCGAGUU DNA 1: CAGGGAGTTAAAGGCCGCTTTTGCGGGATCGTCACCCTCAGCAGCGAAAGACAGCATCGGAACGAGGGTAGCAACGGCT DNA 2: AGCCGTTGCTACCCTCGTTCCGATGCTGTCTTTCGCTGCTGAGGGTGACGATCCCGCAAAAGCGGCCTTTAACTCCCTG", "binding result": "no binding"}

Sourced from paper PMC4288178
